Tested on: gum arabic
Assay: VHH binding to gum arabic in ELISA
Set-up: species or system acacia tree
Conditions: [VHH] 3 μg/ml (200 nM); gum arabic − (well without gum arabic)
Readout Label: absorbance at 405 nm

Molecule	Observed
VHH 5D4: VHH sequence; SEQ ID NO:20 by order of the list (protein, listed as Lama glama, 5D4) VHH: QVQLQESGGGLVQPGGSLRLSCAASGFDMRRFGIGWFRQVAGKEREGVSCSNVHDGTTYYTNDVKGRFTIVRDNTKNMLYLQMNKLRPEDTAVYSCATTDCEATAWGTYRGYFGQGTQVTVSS	0.075
VHH 5C4: VHH sequence; SEQ ID NO:18 by order of the list (protein, listed as Lama glama, 5C4) VHH: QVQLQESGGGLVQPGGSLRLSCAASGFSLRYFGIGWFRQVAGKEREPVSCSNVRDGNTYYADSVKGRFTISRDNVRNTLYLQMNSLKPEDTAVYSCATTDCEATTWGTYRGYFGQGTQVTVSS	0.082
VHH5F5: VHH sequence; SEQ ID NO:22 by order of the list (protein, listed as Lama glama, 5F5) VHH: QVQLQESGGGLVQPGGSLRLSCAASGFPLGLYGIGWFRQAPGKEREAVSCDSVDDGSTNYLDSVKGRFTISRDNAKNMVYLQMNSLKPEDTAVYYCATTDCDAKAWGTWTNYRGQGTQVTVSS	0.090
